Reference for the values: patent US12545660B2

Catalogue of water content at 95% RH (DVS) values
experiment: Dynamic Vapor Sorption (DVS); format: physicochemical; details: 25° C.; 95% RH; two complete sorption/desorption cycles
Write down the numeric answer in % and omit the unit.

Solved entries (count: 3):
| molecule | unit.abbreviation | water content at 95% RH (DVS) |
| --- | --- | --- |
| COc1ccc(C23CCC(CN(c4cc(-c5cnn(C(C)(C)C)c5)ccn4)C(=O)[C@H]4CC[C@H](OC(=O)N5CC(O)C5)CC4)(CC2)CC3)cc1C [Form 3 of Compound 1] | % | 1.2 |
| COc1ccc(C23CCC(CN(c4cc(-c5cnn(C(C)(C)C)c5)ccn4)C(=O)[C@H]4CC[C@H](OC(=O)N5CC(O)C5)CC4)(CC2)CC3)cc1C [Form 1 of Compound 1] | % | 1.2 |
| COc1ccc(C23CCC(CN(c4cc(-c5cnn(C(C)(C)C)c5)ccn4)C(=O)[C@H]4CC[C@H](OC(=O)N5CC(O)C5)CC4)(CC2)CC3)cc1C [Form 2 of Compound 1] | % | 1.0 |

Attention now turns to another entry.
Prompt: Tell us which water content at 95% RH (DVS) value is on record for COc1ccc(C23CCC(CN(c4cc(-c5cnn(C(C)(C)C)c5)ccn4)C(=O)[C@H]4CC[C@H](OC(=O)N5CC(O)C5)CC4)(CC2)CC3)cc1C [Form 4 of Compound 1]
Response: 1.9
